Target: Proteasome subunit beta type-9 (Homo sapiens, UniProt P28065)
Sequence (P28065 whole entry): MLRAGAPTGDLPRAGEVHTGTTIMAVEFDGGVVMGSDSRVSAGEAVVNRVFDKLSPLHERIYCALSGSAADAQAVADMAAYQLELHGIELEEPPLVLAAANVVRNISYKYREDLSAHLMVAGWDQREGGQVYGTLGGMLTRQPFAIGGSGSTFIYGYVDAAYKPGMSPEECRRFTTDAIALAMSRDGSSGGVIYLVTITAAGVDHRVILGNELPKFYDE
Assay: Inhibition of 20S proteasome beta 1i (unknown origin)
measured-endpoint: pIC50
Give bare numbers, as −log10 of the molar value.

Suppose we examine the compound `CC(C)C[C@H](NC(=O)CN1CCCCCC1)C(=O)N[C@@H](Cc1ccccc1)C(=O)N[C@@H](Cc1ccccc1)C(=O)[C@@]1(C)CO1` ; what pIC50 value has been reported?
6.37

* * *

Assay: Inhibition of 20S proteasome beta 2c (unknown origin)
measured-endpoint: pIC50
One number for each entry, as −log10 of the molar value.

Suppose we examine the compound `CC(C)C[C@H](NC(=O)CN1CCCCCC1)C(=O)N[C@@H](Cc1ccccc1)C(=O)N[C@@H](Cc1ccccc1)C(=O)[C@@]1(C)CO1` ; what pIC50 value has been reported?
7.09
